Every entry's value here was drawn from ChEMBL document CHEMBL1129676.

# target_system: MAP kinase p38 (Homo sapiens, UniProt O15264+Q15759+Q16539+P53778)
# assay_protocol: In vitro inhibitory concentration against radioligand [3H]SB-202190 binding to CSBP kinase in human monocytic cell line, THP-1
Overview of recorded log10(IC50) for various compounds
Would you kindly interpret these values as log10 of IC50 expressed in nM?

# annotated cases, reported log10(IC50) shown
compound | log10(IC50)
CSCCCn1cnc(-c2ccc(F)cc2)c1-c1ccncc1 | 2.28
Fc1ccc(-c2ncn(CCCCN3CCOCC3)c2-c2ccncc2)cc1 | 2.68
C[S+]([O-])c1cccc(-n2cnc(-c3ccc(F)cc3)c2-c2ccncc2)c1 (configuration not stated) | 2.72
Fc1ccc(-c2ncn(CCCSc3ccccc3)c2-c2ccncc2)cc1 | 1.90

Reported log10(IC50) for C[S+]([O-])c1ccccc1-n1cnc(-c2ccc(F)cc2)c1-c1ccncc1 (configuration not stated) : what is it? 2.85

Subsequent entry: `FC(F)(F)c1cc(-c2ncn(CCCN3CCOCC3)c2-c2ccncc2)cc(C(F)(F)F)c1` 5.06

Now this one: `FC(F)(F)c1ccc(-c2ncn(CCCN3CCOCC3)c2-c2ccncc2)cc1` 3.47

Also `CS(=O)(=O)CCCn1cnc(-c2ccc(F)cc2)c1-c1ccncc1` ? 2.71

Try the compound `Cc1cc(-c2c(-c3ccc(F)cc3)ncn2CCCN2CCOCC2)cc(C)n1` 4.40

###

# target_system: MAP kinase p38 (Homo sapiens, UniProt O15264+Q15759+Q16539+P53778)
# assay_protocol: In vitro inhibitory concentration against radioligand [3H]SB-202190 binding to CSBP kinase in human monocytic cell line, THP-1
measured_metric: IC50 (µM)
Response body: numeric value in µM, unit text excluded.

Example entries and their recorded answers appear below.
compound | numeric_result
Cc1cc(-c2c(-c3ccc(F)cc3)ncn2CCCN2CCOCC2)ccn1 | 3.05
Fc1ccc(-c2nc[nH]c2-c2ccncc2)cc1 | 0.21
CCN(CC)CCCn1cnc(-c2ccc(F)cc2)c1-c1ccncc1 | 0.27
NCCCn1cnc(-c2ccc(F)cc2)c1-c1ccncc1 | 0.15
C[S+]([O-])CCCn1cnc(-c2ccc(F)cc2)c1-c1ccncc1 (configuration not stated) | 1.4

# get_value(readout='IC50', item= `O=S(=O)(CCCn1cnc(-c2ccc(F)cc2)c1-c1ccncc1)c1ccccc1` ) 1.81

And for C[S+]([O-])c1cccc(-c2ncn(CCCN3CCOCC3)c2-c2ccncc2)c1 (configuration not stated) ? 4.95

Next compound: `Fc1ccc(-c2ncn(CCCN3CCCCC3)c2-c2ccncc2)cc1` 1.17

###

# target_system: Polyunsaturated fatty acid 5-lipoxygenase (Rattus norvegicus, UniProt P12527)
# Sequence (P12527 whole entry): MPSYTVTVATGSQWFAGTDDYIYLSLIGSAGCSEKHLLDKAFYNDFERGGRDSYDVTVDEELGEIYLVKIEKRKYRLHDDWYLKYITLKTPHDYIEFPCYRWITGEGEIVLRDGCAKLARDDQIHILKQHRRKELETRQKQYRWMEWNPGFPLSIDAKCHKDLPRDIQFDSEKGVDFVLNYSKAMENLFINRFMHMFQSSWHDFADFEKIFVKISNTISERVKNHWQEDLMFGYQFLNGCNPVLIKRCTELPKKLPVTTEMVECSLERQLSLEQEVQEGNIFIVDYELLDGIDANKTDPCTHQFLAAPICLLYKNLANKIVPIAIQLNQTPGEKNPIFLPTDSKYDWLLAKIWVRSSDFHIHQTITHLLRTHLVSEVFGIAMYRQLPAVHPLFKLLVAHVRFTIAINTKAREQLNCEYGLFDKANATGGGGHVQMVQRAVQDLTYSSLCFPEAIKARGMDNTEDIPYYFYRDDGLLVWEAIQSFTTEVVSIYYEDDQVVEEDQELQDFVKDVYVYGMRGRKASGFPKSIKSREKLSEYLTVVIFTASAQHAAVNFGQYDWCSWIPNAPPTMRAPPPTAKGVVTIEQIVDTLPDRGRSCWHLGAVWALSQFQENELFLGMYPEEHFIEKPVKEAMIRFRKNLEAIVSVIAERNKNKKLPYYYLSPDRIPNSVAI
# assay_protocol: Inhibitory concentration against 5-lipoxygenase in rat RBL-1 cells
measured_metric: pIC50
Scale explanation: pIC50 corresponds to minus log10 of a concentration expressed in moles per litre.

Illustrative cases are given below, each with its answer.
smiles_input | pIC50
CSc1ccc(-c2nc3n(c2-c2ccncc2)CCC3)cc1 | 5.52
Fc1ccc(-c2ncn(C3CC3)c2-c2ccncc2)cc1 | 4.22

Let us examine a further case.
Please give the measured pIC50 for this compound: `Fc1ccc(-c2nc3n(c2-c2ccncc2)CCS3)cc1` 5.00

###

# target_system: Prostaglandin G/H synthase 1 (Ovis aries, UniProt P05979)
# Sequence (P05979 whole entry): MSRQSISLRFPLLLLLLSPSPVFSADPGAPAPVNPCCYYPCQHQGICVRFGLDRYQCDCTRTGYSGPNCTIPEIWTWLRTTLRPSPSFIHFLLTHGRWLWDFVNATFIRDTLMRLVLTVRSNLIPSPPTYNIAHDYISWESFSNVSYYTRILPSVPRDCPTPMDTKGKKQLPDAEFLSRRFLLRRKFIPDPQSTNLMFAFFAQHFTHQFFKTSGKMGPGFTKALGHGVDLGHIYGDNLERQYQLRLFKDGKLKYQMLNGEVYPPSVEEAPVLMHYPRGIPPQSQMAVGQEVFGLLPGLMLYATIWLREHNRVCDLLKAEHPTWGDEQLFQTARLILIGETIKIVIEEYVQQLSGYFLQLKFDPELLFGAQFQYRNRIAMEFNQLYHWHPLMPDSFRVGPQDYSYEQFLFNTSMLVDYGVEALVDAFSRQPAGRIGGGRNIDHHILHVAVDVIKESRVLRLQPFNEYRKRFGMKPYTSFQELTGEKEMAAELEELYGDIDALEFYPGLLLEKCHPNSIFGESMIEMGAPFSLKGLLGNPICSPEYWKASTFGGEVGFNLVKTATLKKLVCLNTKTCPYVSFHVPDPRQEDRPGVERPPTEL
measured_metric: IC50

Reference set, count: 2
smiles_input | target_system | result
Clc1ccc(-c2ncn(CCCN3CCOCC3)c2-c2ccncc2)cc1Cl | Prostaglandin G/H synthase 1 (Ovis aries, UniProt P05979) | > 100 µM
Fc1ccc(-c2nc[nH]c2-c2ccncc2)cc1 | Prostaglandin G/H synthase 1 (Ovis aries, UniProt P05979) | > 100 µM

Would you kindly look at the next entry?
Under Prostaglandin G/H synthase 1 (Ovis aries, UniProt P05979): IC50 value of `Fc1ccc(-c2ncn(C3CC3)c2-c2ccncc2)cc1` ? 16 µM

###

Some molecules, each annotated with its measured IC50.
# target_system: MAP kinase p38 (Homo sapiens, UniProt O15264+Q15759+Q16539+P53778)
# assay_protocol: In vitro inhibitory concentration against radioligand [3H]SB-202190 binding to CSBP kinase in human monocytic cell line, THP-1
Report the figure in µM without appending any unit label.

A selection of reference data follows.
molecule | target_system | numeric_result
C[S+]([O-])c1ccc(-n2cnc(-c3ccc(F)cc3)c2-c2ccncc2)cc1 (stereo not drawn) | MAP kinase p38 (Homo sapiens, UniProt O15264+Q15759+Q16539+P53778) | 0.75
Nc1cc(-c2c(-c3ccc(F)cc3)ncn2CCCN2CCOCC2)ccn1 | MAP kinase p38 (Homo sapiens, UniProt O15264+Q15759+Q16539+P53778) | 1.18
Fc1ccc(-c2ncn(CCCN3CCOCC3)c2-c2ccnc(Cl)c2)cc1 | MAP kinase p38 (Homo sapiens, UniProt O15264+Q15759+Q16539+P53778) | 1.89
CSc1cccc(-c2ncn(CCCN3CCOCC3)c2-c2ccncc2)c1 | MAP kinase p38 (Homo sapiens, UniProt O15264+Q15759+Q16539+P53778) | 0.29
CC(C)n1cnc(-c2ccc(F)cc2)c1-c1ccncc1 | MAP kinase p38 (Homo sapiens, UniProt O15264+Q15759+Q16539+P53778) | 0.12
Fc1ccc(-c2ncn(C3CC3)c2-c2ccncc2)cc1 | MAP kinase p38 (Homo sapiens, UniProt O15264+Q15759+Q16539+P53778) | 0.08
FC(F)(F)c1cccc(-c2ncn(CCCN3CCOCC3)c2-c2ccncc2)c1 | MAP kinase p38 (Homo sapiens, UniProt O15264+Q15759+Q16539+P53778) | 0.46
Cc1cc(-c2[nH]c(-c3ccc([S+](C)[O-])cc3)nc2-c2cccc(F)c2)ccn1 (stereo not drawn) | MAP kinase p38 (Homo sapiens, UniProt O15264+Q15759+Q16539+P53778) | 0.37

Query (molecule): `Fc1ccc(-c2ncn(CCCN3CCCC3)c2-c2ccncc2)cc1` ; field requested: IC50 0.34

Follow-up entry: `Fc1ccc(-c2ncn(CCCN3CCOCC3)c2-c2ccnc3ccccc23)cc1` 9

Similarly, `CN(CCCn1cnc(-c2ccc(F)cc2)c1-c1ccncc1)Cc1ccccc1` ? 0.13

Then `CCOCCCn1cnc(-c2ccc(F)cc2)c1-c1ccncc1` ? 0.1

Request: `CSc1ccc(-c2nc(-c3cccc(F)c3)c(-c3ccncc3)[nH]2)cc1` 0.34

###

Entries and their measured log10 of IC50 follow.
# target_system: MAP kinase p38 (Homo sapiens, UniProt O15264+Q15759+Q16539+P53778)
# assay_protocol: In vitro inhibitory concentration against radioligand [3H]SB-202190 binding to CSBP kinase in human monocytic cell line, THP-1
Field: value | Transform: log10 | Quantity: IC50 | Unit: nM

Answered examples (10):
compound | log10 of IC50
COC(=O)CCCn1cnc(-c2ccc(F)cc2)c1-c1ccncc1 | 2.46
Fc1ccc(-c2ncn(CCN3CCOCC3)c2-c2ccncc2)cc1 | 2.88
Clc1cccc(-c2ncn(CCCN3CCOCC3)c2-c2ccncc2)c1 | 2.32
CSc1ccccc1-n1cnc(-c2ccc(F)cc2)c1-c1ccncc1 | 1.90
Fc1ccc(-c2ncn(CCCOc3ccccc3)c2-c2ccncc2)cc1 | 1.85
O=C(O)CCCn1cnc(-c2ccc(F)cc2)c1-c1ccncc1 | 3.58
CSc1ccc(-n2cnc(-c3ccc(F)cc3)c2-c2ccncc2)cc1 | 3.17
[O-][S+](CCCn1cnc(-c2ccc(F)cc2)c1-c1ccncc1)c1ccccc1 (centres undefined) | 2.80
CC(C)(C)n1cnc(-c2ccc(F)cc2)c1-c1ccncc1 | 3.68
Fc1ccc(-c2ncn(CCCN3CCOCC3)c2-c2cccnc2)cc1 | 4.81

Now for a further compound.
Lab request: please report log10 of IC50 under test system MAP kinase p38 (Homo sapiens, UniProt O15264+Q15759+Q16539+P53778) for `Clc1ccc(-c2ncn(CCCN3CCOCC3)c2-c2ccncc2)cc1Cl` 2.51
